measurement.target: CDK2/cyclin A (Homo sapiens, UniProt P24941)
Construct: made in house; host or cells: CDK2: insect cells (baculovirus); cyclin A: E. coli
assay.info: Inhibition of CDK2/cyclin A retinoblastoma kinase activity (Ki; % inhibition)
Format: biochemical
measurement.conditions: at 0.03 μM
CDK2 % Inhibition at 0.03 μM overview
Mention the unit after the number when you answer.

Example entries begin here.
Given the entry CN(Cc1ccccc1)C(=O)c1ccc(Nc2nc(N)c(C(=O)c3c(F)cccc3F)s2)cc1 , report its measured CDK2 % Inhibition at 0.03 μM. −1%

Name the recorded CDK2 % Inhibition at 0.03 μM for C=CCN1CCN(C(=O)c2ccc(Nc3nc(N)c(C(=O)c4c(F)cccc4F)s3)cc2)CC1 . 3%

# get_value(readout='CDK2 % Inhibition at 0.03 μM', item= CCCCNC(=O)c1ccc(Nc2nc(N)c(C(=O)c3c(F)cccc3F)s2)cc1 ) 7%

What measured CDK2 % Inhibition at 0.03 μM goes with COCC(C)NC(=O)c1ccc(Nc2nc(N)c(C(=O)c3c(F)cccc3F)s2)cc1 (stereo not shown) ? −2%

Continuing:
// lookup CDK2 % Inhibition at 0.03 μM for CC(C)N(Cc1ccccc1)C(=O)c1ccc(Nc2nc(N)c(C(=O)c3c(F)cccc3F)s2)cc1 −4%

For the compound Nc1nc(Nc2ccc(C(=O)NCc3ccccc3)cc2)sc1C(=O)c1c(F)cccc1F , what CDK2 % Inhibition at 0.03 μM is on record? 30%

Entry under review: Nc1nc(Nc2ccc(C(=O)Nc3ccc4ncccc4c3)cc2)sc1C(=O)c1c(F)cccc1F . Reported CDK2 % Inhibition at 0.03 μM? 21%
